- System: E. faecalis
- assay.name: In vitro MIC testing, antibacterial spectrum of activity
- Format: cell-based
- experimental.context: E. faecalis [VSE] (31 isolates)
measured.attribute: MIC Range

1. C[C@H]1c2cccc(O)c2C(=O)C2=C(O)[C@]3(O)C(=O)C(C(N)=O)=C(O)[C@@H](N(C)C)[C@@H]3[C@@H](O)[C@@H]21 [Doxycycline, doxycycline]    0.12 to 16 µg/mL
2. CON(C)Cc1ccc(O)c2c1C[C@H]1C[C@H]3[C@H](N(C)C)C(O)=C(C(N)=O)C(=O)[C@@]3(O)C(O)=C1C2=O [The Active]    0.25 to 32 µg/mL
3. CC1(C)S[C@@H]2[C@H](NC(=O)[C@H](N)c3ccccc3)C(=O)N2[C@H]1C(=O)O [Ampicillin]    0.5 to 8 µg/mL
4. CN[C@H](CC(C)C)C(=O)N[C@H]1C(=O)N[C@@H](CC(N)=O)C(=O)N[C@H]2C(=O)N[C@H]3C(=O)N[C@H](C(=O)N[C@H](C(=O)O)c4cc(O)cc(O)c4-c4cc3ccc4O)[C@H](O)c3ccc(c(Cl)c3)Oc3cc2cc(c3O[C@@H]2O[C@H](CO)[C@@H](O)[C@H](O)[C@H]2O[C@H]2C[C@](C)(N)[C@H](O)[C@H](C)O2)Oc2ccc(cc2Cl)[C@H]1O [Vancomycin]    0.5 to 4 µg/mL
